Data origin, for the record: PubChem BioAssay

experimental.details: modulators of S6 phosphorylation in cells, primary screen, cell-based, A549, cytoblot, luminescence, serum-stimulated (AID 1158);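 further: serum-stimulated A549 lung adenocarcinoma cells; signal is phosphorylated S6 detected by cytoblot immunostaining with HRP secondary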
experimental.setup: A549 phospho-S6 cytoblot, 5 h, higher = more signal
Form field: z-score (one value per entry).

Reference set (5 entries):
Request the reported z-score associated with CCN1C(=O)[C@H]2[C@H]3[C@H](O)[C@H](O)CC(=O)[C@@H]3CC[C@H]2C1=O
-0.108

Next up: Cn1c(=O)n2n(c1=O)[C@H]1[C@H](O)[C@@H]3O[C@@H]3C(=NOCc3ccccc3)[C@H]1CC2
-0.807

Next up: C[C@H](ON=C1[C@H]2CCn3c(=O)n(-c4ccccc4)c(=O)n3[C@H]2[C@H](O)[C@@H]2O[C@H]12)c1cn([C@H](CO)Cc2ccccc2)nn1
-0.52

Next up: O=C(NN=C1C[C@@H](O)[C@@H](O)[C@@H]2[C@@H]3C(=O)N(C[C@@H]4CCCO4)C(=O)[C@@H]3CC[C@H]12)OCc1ccccc1
-0.249

Next up: O=C1CCCC=C1C(O)CCCCBr (centres undefined)
0.231

***
Request the reported z-score associated with COC(=O)CC=C[C@@H](C)[C@@H](C=NOCC[C@@H]1C=C[C@H](OC(C)=O)[C@@H](COC(C)=O)O1)OC
-0.801

Next up: CCOC(=O)[C@H](Cc1ccccc1)NC(=O)CCC1CC(OC(=O)NCCc2ccc(F)cc2)CC2(CCCC(COC(=O)NCCc3ccc(Cl)cc3)O2)O1 (some centres undefined)
0.406
